Where a name gives a salt, the structure may show the parent alone.
RESULT_TYPE: melting point

COMPOUND	melting point
COc1ccc(OC)c(S(=O)(=O)n2ccc3c(N4CCNCC4)cccc32)c1 (as salt: trifluoroacetate)	245 to 246 °C (dec.)
Cn1cnc(S(=O)(=O)n2ccc3c(N4CCNCC4)cccc32)c1 (as salt: trifluoroacetate)	230 to 231 °C
CCS(=O)(=O)c1cccc(S(=O)(=O)n2ccc3c(N4CCNCC4)cccc32)c1 (as salt: hydrochloride)	166 to 167 °C
COc1cccc(S(=O)(=O)n2ccc3c(N4CCNCC4)cccc32)c1 (as salt: trifluoroacetate)	221 °C (dec.)
O=S(=O)(c1cc(Cl)cc(Cl)c1)n1ccc2c(N3CCNCC3)cccc21 (as salt: hydrochloride)	156 to 157 °C

// each listed compound needs a value for melting point
1. O=S(=O)(c1cccc(Br)c1)n1ccc2c(N3CCNCC3)cccc21 (as salt: hydrochloride)
2. CN1CCN(c2cccc3c2ccn3S(=O)(=O)c2ccc(F)cc2)CC1 (as salt: hydrochloride)

158 to 159 °C
151 to 152 °C

Item O=S(=O)(c1cc(Cl)ccc1Cl)n1ccc2c(N3CCNCC3)cccc21 (as salt: trifluoroacetate) has what recorded melting point?
237 to 238 °C (dec.)

* * *

Structures can show the parent of a compound that is named as a salt.
Please provide measured melting point for the entries that follow.

Some molecules with known melting point results, for comparison:
MOLECULE	RESULT_TYPE	RESULT
CC(C)(C)c1ccc(S(=O)(=O)n2ccc3c(N4CCNCC4)cccc32)cc1 (as salt: trifluoroacetate)	melting point	231 to 232 °C (dec.)
O=S(=O)(c1ccc(Cl)cc1)n1ccc2c(N3CCNCC3)cccc21 (as salt: trifluoroacetate)	melting point	193 to 194 °C
O=S(=O)(c1ccccc1)n1cc(Br)c2c(N3CCNCC3)cccc21 (as salt: hydrochloride)	melting point	304 to 305 °C

// each listed molecule needs a value for melting point
1. CS(=O)(=O)c1ccc(S(=O)(=O)n2ccc3c(N4CCNCC4)cccc32)cc1 (as salt: trifluoroacetate)
2. CCCS(=O)(=O)c1cccc(S(=O)(=O)n2ccc3c(N4CCNCC4)cccc32)c1 (as salt: trifluoroacetate)

1. 234 to 235 °C (dec.)
2. 173 to 174 °C

* * *

Where a name gives a salt, the structure may show the parent alone.
RESULT_TYPE: melting point

// each listed compound needs a value for melting point
1. CS(=O)(=O)c1ccc(F)c(S(=O)(=O)n2ccc3c(N4CCNCC4)cccc32)c1 (as salt: trifluoroacetate)
2. CC(C)CS(=O)(=O)c1cccc(S(=O)(=O)n2ccc3c(N4CCNCC4)cccc32)c1 (as salt: trifluoroacetate)
3. O=S(=O)(c1c(F)cccc1F)n1ccc2c(N3CCNCC3)cccc21 (as salt: trifluoroacetate)
4. O=S(=O)(c1cccc(F)c1)n1ccc2c(N3CCNCC3)cccc21 (as salt: trifluoroacetate)
5. O=S(=O)(c1cccc(C(F)(F)F)c1)n1ccc2c(N3CCNCC3)cccc21 (as salt: hydrochloride)
6. N#Cc1cccc(S(=O)(=O)n2ccc3c(N4CCNCC4)cccc32)c1 (as salt: trifluoroacetate)
7. O=S(=O)(c1ccc(F)cc1)n1ccc2c(N3CCNCC3)cccc21 (as salt: hydrochloride)

1. 172 to 173 °C (dec.)
2. 220 to 222 °C
3. 223 to 224 °C
4. 227 to 228 °C (dec.)
5. 256 to 257 °C
6. 238 °C (dec.)
7. 203 to 204 °C

// each listed compound needs a value for melting point
1. CS(=O)(=O)c1ccccc1S(=O)(=O)n1ccc2c(N3CCNCC3)cccc21 (as salt: trifluoroacetate)
2. O=S(=O)(c1cccs1)n1ccc2c(N3CCNCC3)cccc21 (as salt: trifluoroacetate)

1. 171 °C
2. 208 to 209 °C
